# Target Entity: T1, human apical domain of CD71 (human, UniProt P02786 189-383, limits assumed)
# T1 construct: domain: apical domain
# T1 sequence (P02786 189-383 limits assumed): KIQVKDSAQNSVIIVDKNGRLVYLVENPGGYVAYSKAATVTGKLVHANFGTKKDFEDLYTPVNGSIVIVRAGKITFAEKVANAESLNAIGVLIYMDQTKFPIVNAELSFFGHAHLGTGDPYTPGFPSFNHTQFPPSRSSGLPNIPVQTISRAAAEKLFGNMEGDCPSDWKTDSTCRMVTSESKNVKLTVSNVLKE
# Assay Overview: primary ELISA; also: test concentration or dose not given here
Test Readout: RLU (RLU)
The answer is to be given in RLU; state only the numeric part.

Here are 3 binders together with their reported answers.
RLU recorded for this binder, CD71-binding FN3 domain SEQ ID NO 443 (designed binder) MLPAPKNLVVSRVTEDSARLSWTAPDAAFDSFFIGYLEPQPPGEAIELYVPGSERSYDLTGLKPGTEYNVTIQGVKGGFPSDPLHAAFTT , is 4.4e+06

RLU recorded for this binder, CD71-binding FN3 domain SEQ ID NO 425 (designed binder) MLPAPKNLVVSRVTEDSARLSWTAPDAAFDSFFIGYLEPQPPGEAIGLLVPGSERSYDLTGLKPGTEYNVTIQGVKGGFPSNPLSAIFTT , is 6.23e+06

RLU recorded for this binder, CD71-binding FN3 domain SEQ ID NO 385 (designed binder) MLPAPKNLVVSRVTEDSARLSWTAPDAAFDSFFIGYLEPQPPGEAIDLYVPGSERSYDLTGLKPGTEYNVTIQGVKGGFPSHPLQAHFTT , is 5.91e+06

Next, consider the following binder.
RLU recorded for this binder, CD71-binding FN3 domain SEQ ID NO 365 (designed binder) MLPAPKNLVVSRVTEDSARLSWTAPDAAFDSFFIGYLEPQPPGEAIVLWVPGSERSYDLTGLKPGTEYNVTIQGVKGGFPSHPLVAKFTT , is 6.7e+06
